Where these numbers come from: PubChem BioAssay AID2058

- system_under_test: G-protein coupled receptor 35 (Homo sapiens)
- run_description: inhibition of zaprinast-stimulated GPR35 beta-arrestin translocation – imaging, U2OS, beta-arrestin-GFP, zaprinast agonist, primary screen (AID 2058)
- condition_details: zaprinast antagonism, at 10 µM
Hit rate of the full screen: of about 290,000 compounds, about 150 (0.052%) were called active.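 The calls were made as follows: active = inhibition of at least 50% with at least 30 cells and total cytoplasm GFP at most 10,000,000; inconclusive = under 30 cells or total GFP of 10,000,000 plus; inactive = the rest.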 The sample holds actives, similar compounds and a random draw of the others, so the mix is not that of the screen. Potency and affinity values are given separately.
Outcomes: Yes = active, No = inactive

molecule=Cc1c(C(=O)Nc2ccc(Cc3ccncc3)cc2)cccc1[N+](=O)[O-] class_name=No
molecule=CCOC(=O)N1CC=C2C(C#N)=C(N)C(C#N)(C#N)[C@H](c3ccsc3)[C@H]2C1 class_name=No
molecule=CCSC1=NSC2=NC(=O)/C(=C\c3coc4ccccc4c3=O)C(=N)N12 class_name=No
molecule=CCOC(=O)N1CC=C2C(C#N)=C(N)C(C#N)(C#N)[C@H](c3ccc(OCC)c(OCC)c3)[C@H]2C1 class_name=No
molecule=CC(C)CCn1c(CN2CCOCC2)nc2c1c(=O)n(C)c(=O)n2C class_name=No
molecule=CN1CC=C2C(C#N)=C(N)C(C#N)(C#N)[C@H](c3ccoc3)[C@H]2C1 class_name=Yes
molecule="CCOCCCNC(=O)C(c1ccc(Cl)cc1)N1CCN(c2ccccc2)CC1 (stereo not given)" class_name=No
molecule=COC(=O)c1sc(S(=O)(=O)N2CCC(C)CC2)c(C(=O)OC)c1C class_name=No
molecule=CN(Cc1nc(-c2cccc(Cl)c2)no1)C1CCOCC1 class_name=No
molecule="CC1Sc2ccc(S(=O)(=O)CCC(=O)NCc3ccc(Cl)cc3)cc2NC1=O (stereo not given)" class_name=No

====

- system_under_test: G-protein coupled receptor 35 (Homo sapiens)
- run_description: inhibition of zaprinast-stimulated GPR35 beta-arrestin translocation – imaging, U2OS, beta-arrestin-GFP, zaprinast agonist, primary screen (AID 2058)
- condition_details: zaprinast antagonism, at 10 µM, hits give high values
Screen size: about 290,000 compounds; about 150 (0.052%) were called active. Shown is part of a subset that was picked to be rich in actives. Entries with a potency or affinity are not part of this list.
parameter: inhibition (%)

molecule="CCN1CC=C2C(C#N)=C(N)C(C#N)(C#N)C(CCc3ccccc3)C2C1 (stereo not given)" parameter=inhibition measurement_unit=% recorded_measurement=90.4
molecule="C=CCC(O)(CC=C)CNC(=O)C1CCC(=O)N(CCCc2ccccc2)C1 (stereo not given)" parameter=inhibition measurement_unit=% recorded_measurement=1.6
molecule=N#CC1=C(N)C(C#N)(C#N)[C@H](c2cccnc2)[C@H]2CN(C(=O)OCc3ccccc3)CC=C12 parameter=inhibition measurement_unit=% recorded_measurement=0.1
molecule="CN1CC=C2C(C#N)=C(N)C(C#N)(C#N)C(Cc3ccccc3)C2C1 (stereo not given)" parameter=inhibition measurement_unit=% recorded_measurement=53.4
molecule="N#CC1=C(N)C(C#N)(C#N)C(c2cccnc2)C2CN(C(=O)OCc3ccccc3)CC=C12 (stereo not given)" parameter=inhibition measurement_unit=% recorded_measurement=8.1

====

This section presents molecules with their documented inhibition values.
- system_under_test: G-protein coupled receptor 35 (Homo sapiens) (UniProt Q9HC97)
- Sequence (Q9HC97 whole entry, looked up): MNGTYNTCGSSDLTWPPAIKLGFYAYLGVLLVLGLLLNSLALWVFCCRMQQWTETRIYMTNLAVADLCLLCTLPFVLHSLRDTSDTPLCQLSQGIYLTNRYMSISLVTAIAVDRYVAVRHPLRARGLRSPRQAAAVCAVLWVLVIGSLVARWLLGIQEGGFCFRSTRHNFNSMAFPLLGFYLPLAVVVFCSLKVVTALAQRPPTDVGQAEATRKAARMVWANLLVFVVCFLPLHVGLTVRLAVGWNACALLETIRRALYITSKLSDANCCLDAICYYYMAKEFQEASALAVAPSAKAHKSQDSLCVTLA
- run_description: inhibition of zaprinast-stimulated GPR35 beta-arrestin translocation – imaging, U2OS, beta-arrestin-GFP, zaprinast agonist, primary screen (AID 2058)
- condition_details: zaprinast antagonism, at 10 µM, hits give high values
In all, about 290,000 compounds went through this assay and about 150 (0.052%) were called active. The list comes from a sample in which actives are over-represented; it also holds close analogues and randomly drawn compounds. Entries with a potency or affinity are not part of this list.
parameter: inhibition

molecule="O=C(NC1CCCc2ccccc21)c1cn2ccccc2n1 (stereo unspecified)" recorded_measurement="13.2% (inactive)"
molecule=COc1cccc(C(=O)NC(=S)Nc2ccccc2N2CCCCC2)c1 recorded_measurement="9.4% (inactive)"
molecule=COC(=O)CSc1nc2ccc(NC(=O)c3ccccc3C(=O)N3CCOCC3)cc2s1 recorded_measurement="-10.4% (inactive)"
molecule=O=c1cc(CSCc2ccc(Cl)cc2)[nH]c(=O)[nH]1 recorded_measurement="2.3% (inactive)"
molecule=O=C(CSc1nc(O)c(C2CCCCC2)c(=O)[nH]1)Nc1ccccc1Cl recorded_measurement="-1.9% (inactive)"
molecule=CC(=O)n1cc(N(C(=O)CCl)c2ccc([N+](=O)[O-])cc2)c2ccccc21 recorded_measurement="-2.4% (inactive)"
molecule=Cc1c(NC(=S)N/N=C/c2ccc(N(C)C)cc2)c(=O)n(-c2ccccc2)n1C recorded_measurement="5.5% (inactive)"
molecule=Cc1[nH][nH]c(=O)c1N=Nc1ccc(Cl)cc1 recorded_measurement="-3.2% (inactive)"
molecule=O=Cc1[nH]c2ccccc2c1N(C(=O)CCl)c1ccccc1 recorded_measurement="-1.1% (inactive)"
molecule=O=c1cc(N=Nc2ccc(Cl)cc2)[nH]c(=O)[nH]1 recorded_measurement="52.2% (active)"
molecule="CC(C(=O)NCc1ccco1)n1nc(-c2ccccc2)c2cc(Cl)ccc21 (stereo unspecified)" recorded_measurement="7.1% (inactive)"
